Attribution: patent US20150337042A1

Each entry below lists one item and its recorded koff value.
- System: T1, truncated wild type EGFR 1-525 (EGFR1 (1-525)-SRGPF-Myc-NMHTG-6His) (human, UniProt P00533 25-525)
- T1 construct: the signal peptide is left out; not shown: Myc tag
- Method Description: SPR (Biacore), antibody captured via anti-human Fc, antigen injected
# number only, unit s⁻¹ dropped from output

Binder | koff (s⁻¹)
Antibody A (AbA) (antibody, human IgG1, kappa, V domains shown, IgG1) VH: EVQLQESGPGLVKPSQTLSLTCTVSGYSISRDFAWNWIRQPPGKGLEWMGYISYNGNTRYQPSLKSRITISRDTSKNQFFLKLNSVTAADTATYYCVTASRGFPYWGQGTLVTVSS VL: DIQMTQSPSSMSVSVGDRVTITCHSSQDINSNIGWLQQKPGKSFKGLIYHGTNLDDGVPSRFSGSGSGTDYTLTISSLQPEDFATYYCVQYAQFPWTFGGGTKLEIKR | 0.000731

Could you now consider this next binder?
Quick one: koff for Antibody F (AbF) (antibody, V domains shown, Full length IgG1) VH: EVQLQESGPGLVKPSQTLSLTCTVSGYSISRDFAWNWIRQPPGKGLEWMGYISYSGNTRYQPSLKSRITISRDTSKNQFFLKLNSVTAADTATYYCVTASRGFPYWGQGTLVTVSS VL: DIQMTQSPSSMSVSVGDRVTITCHSSQDINSNIGWLQQKPGKSFKGLIYHGTNLDDGVPSRFSGSGSGTDYTLTISSLQPEDFATYYCVQYAQFPWTFGGGTKLEIK ?
0.000831
